outcome measure: melting point

Here is how some compounds turned out for melting point.
// query For the compound COCOc1cc(-c2cnc3[nH]cc(C(=O)C(C)(C)C)c3n2)cc(N2CCCC2)c1 , what melting point is on record?
// result 229 to 230 °C

// query Could you share which melting point value was measured for CNS(=O)(=O)c1ccc(-c2cnc3[nH]cc(C(=O)C(C)(C)C)c3n2)cc1 ?
// result 278 to 280 °C

// query Requested field: melting point. Item: Cc1cc(-c2cnc3[nH]cc(C(=O)C(C)(C)C)c3n2)cc(C(C)(C)C)c1
// result 234.9 to 236.1 °C

// query Return reported melting point; argument: CC(C)(C)C(=O)c1c[nH]c2ncc(-c3ccc(F)c(Cl)c3)nc12
// result 233 to 234 °C

// query Suppose we examine the compound CC(=O)N1CCN(c2ccc(-c3cnc4[nH]cc(C(=O)C5(C)CCCCC5)c4n3)cc2)CC1 ; what melting point value has been reported?
// result 278 to 284.9 °C

// query Entry under review: CC(C)(C)C(=O)c1c[nH]c2ncc(-c3cccc(NC4=NCCN4)c3)nc12 . Reported melting point?
// result 228 to 230 °C

Others:
// query Reported melting point, compound COc1cc(-c2cnc3[nH]cc(C(=O)C4(C)CCCC4)c3n2)cc(OC)c1OC : ____
// result 244 to 246 °C

// query I'd like to know its melting point. The compound in question is CCOc1cc(-c2cnc3[nH]cc(C(=O)C(C)(C)C)c3n2)cc(N2CCCC2)c1
// result 236 to 237 °C

// query For the compound shown here, CC(C)(C)C(=O)c1c[nH]c2ncc(-c3cccc(C#N)c3)nc12 , give the reported melting point.
// result 248 to 249 °C

// query melting point for COc1cc(-c2cnc3[nH]cc(C(=O)NCC(C)O)c3n2)cc(OC)c1OC (stereo not drawn) ?
// result 201.9 to 202.6 °C

// query Sample CC(C)(C)C(=O)c1c[nH]c2ncc(-c3cccc(N)c3)nc12 — what was its melting point?
// result 239 to 241 °C

###

outcome measure: melting point

Please review the entries below; each comes with its answer.
// query Dear colleague, I am looking for the recorded melting point of the following compound: CC(C)(C)C(=O)c1c[nH]c2ncc(-c3ccc(OCCN4CCOCC4)cc3)nc12 [Example I-40]
// result 198.4 to 202.7 °C

// query Any idea what melting point was measured for CC1(C(=O)c2c[nH]c3ncc(Br)nc23)CCCC1 [Example 166] ?
// result 206.9 to 207.9 °C

// query Reported melting point for CN1CCN(c2ccc(-c3cnc4[nH]cc(C(=O)C5(C)CCCCC5)c4n3)cc2)CC1 [Example 170] : what is it?
// result 225 to 226 °C

// query Given CC(C)(C)C(=O)c1c[nH]c2ncc(-c3ccc(S(N)(=O)=O)cc3)nc12 [Example 140] , state its recorded melting point.
// result 277 to 278 °C

// query Item CC(=O)Nc1ccc(S(=O)(=O)Nc2cccc(-c3cnc4[nH]cc(C(=O)C(C)(C)C)c4n3)c2)cc1 [Example I-412] has what recorded melting point?
// result 226 to 228 °C

// query For the compound shown here, CC(C)(C)C(=O)c1c[nH]c2ncc(-c3cccc(CN4CCCCC4)c3)nc12 [Example 150] , give the reported melting point.
// result 176 to 177 °C

// query Looking for the measured melting point of CC1(C(=O)c2c[nH]c3ncc(-c4ccc(N5CCCCC5)cc4)nc23)CCCCC1 [Example 174] , can you help?
// result 234 to 236 °C

Next:
// query # input compound: CC1(C(=O)c2c[nH]c3ncc(-c4cccc(N5CCN(S(N)(=O)=O)CC5)c4)nc23)CCCCC1 [Example 183] ; wanted: its melting point
// result 233 to 235 °C

###

target: JAK2: Recombinant human kinase domain (Homo sapiens, UniProt O60674); assay: JAK2 kinase inhibition, radioactive end-point assay; conditions: 1 nM JAK2, ATP 1.5 uM, peptide 50 uM, 20 minutes, room temperature; read-out: IC50 h-jak2-sf21-c
Sequence (O60674 849-1124 limits assumed): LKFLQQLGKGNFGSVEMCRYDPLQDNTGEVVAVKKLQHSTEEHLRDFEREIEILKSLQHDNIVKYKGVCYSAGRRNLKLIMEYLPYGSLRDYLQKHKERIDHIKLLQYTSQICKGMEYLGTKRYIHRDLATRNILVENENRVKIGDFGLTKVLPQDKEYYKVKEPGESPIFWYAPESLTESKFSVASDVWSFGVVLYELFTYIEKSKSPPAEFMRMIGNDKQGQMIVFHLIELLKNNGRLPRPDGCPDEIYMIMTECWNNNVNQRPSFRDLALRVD
pIC50: −log10 of the molar value.
outcome measure: pIC50

Some molecules with recorded pIC50:
// query Field request: pIC50 | item: COc1cc(-c2cnc3[nH]cc(C(=O)NCC(C)OC)c3n2)cc(OC)c1OC (stereo not shown)
// result 7.97

// query Value lookup for pIC50; key = COc1cc(-c2cnc3[nH]cc(C(=O)C4(C)CCCCC4)c3n2)cc(OC)c1OC
// result 6.97

(A) CC(C)(C)C(=O)c1c[nH]c2ncc(-c3cccc(N4CCCC4)c3)nc12
(B) COc1cc(-c2cnc3[nH]cc(C(=O)C(C)(C)C)c3n2)cc(OC)c1OC
// query Pick one: A or B . Which one has the lower reported pIC50? Mark your answer with the label of the selected entry.
// result A

###

outcome measure: melting point

// query Sample COc1cc(-c2cnc3[nH]cc(C(=O)CC(C)C)c3n2)cc(OC)c1OC [Example 63] — what was its melting point?
// result 210 to 211.4 °C

// query Find the recorded melting point belonging to CNC(=O)c1cccc(-c2cnc3[nH]cc(C(=O)CC(C)C)c3n2)c1 [Example I-9] and report it.
// result 243 to 244 °C

// query Would you kindly share the measured melting point for CC1(C(=O)c2c[nH]c3ncc(-c4cccc(N5CCN(C(=O)CC#N)CC5)c4)nc23)CCCCC1 [Example 178] ?
// result 214 to 216 °C

// query GET /values?readout=melting point&item= COc1cc(-c2cnc3[nH]cc(C(=O)NC4CCCOC4)c3n2)cc(OC)c1OC (centres unmarked) [Example 23]
// result 191 to 192 °C

// query Can you look up the measured melting point of CCOc1cccc(-c2cnc3[nH]cc(C(=O)C(C)(C)C)c3n2)c1 [Example 136] for me?
// result 195 to 196 °C

// query Query: melting point; subject: Cn1nccc1-c1ccc(-c2cnc3[nH]cc(C(=O)C(C)(C)C)c3n2)cc1 [Example 281]
// result 257 to 258 °C

// query // lookup melting point for COCC(=O)c1c[nH]c2ncc(-c3cc(OC)c(OC)c(OC)c3)nc12 [Example 132]
// result 229 to 230 °C

// query Need melting point, item CC(C)(C)C(=O)c1c[nH]c2ncc(-c3cc(N4CCCC4)cc(N4CCCC4)c3)nc12 [Example 97]
// result 291 to 303 °C

Continuing:
// query Report melting point for Cc1nnc(-c2ccc(-c3cnc4[nH]cc(C(=O)C(C)(C)C)c4n3)cc2)o1 [Example I-357] please.
// result > 300 °C

// query Fill in the blank: the reported melting point of CCN(CC)c1ccc(-c2cnc3[nH]cc(C(=O)C4(C)CCCCC4)c3n2)cc1 [Example 173] is ____.
// result 211 to 213 °C

// query Endpoint output: melting point of CC(C)(C)C(=O)c1c[nH]c2ncc(-c3ccc(-c4ccccc4)cc3)nc12 [Example I-355] . Value?
// result 275 to 277 °C

// query Which melting point value belongs to CC(C)(C)C(=O)c1c[nH]c2ncc(-c3ccc(N4CCNCC4)cc3)nc12 [Example I-45] ?
// result 234 to 246 °C

// query Looking for the measured melting point of Cc1nnc(-c2cccc(-c3cnc4[nH]cc(C(=O)C(C)(C)C)c4n3)c2)o1 [Example I-325] , can you help?
// result 260.9 to 264.4 °C

// query Bench note: what melting point did CC(=O)N1CCN(c2cccc(-c3cnc4[nH]cc(C(=O)C(C)(C)C)c4n3)c2)CC1 [Example I-100] show?
// result 238 to 239 °C

// query Fill blank: measured melting point of the molecule COc1cc(-c2cnc3[nH]cc(C(=O)C4(C)CCCCC4)c3n2)cc(N2CCSCC2)c1 [Example I-155] is ____.
// result 212 to 214 °C

// query # query: melting point of entry CC(C)(C)C(=O)c1c[nH]c2ncc(-c3cccc(CN)c3)nc12 [Example 149]
// result 176 to 178 °C

// query Given the molecule CC(C)(C)C(=O)c1c[nH]c2ncc(-c3cccc(-c4cn[nH]c4)c3)nc12 [Example I-369] , what is its reported melting point?
// result > 300 °C

###

# melting point per entry

// query Item CN(C)C1CCN(c2cccc(-c3cnc4[nH]cc(C(=O)C(C)(C)C)c4n3)c2)C1 (stereo not drawn) [Example 202] has what recorded melting point?
// result 204 to 206 °C

// query I'd like to know its melting point. The molecule in question is CC(C)(C)C(=O)c1c[nH]c2ncc(-c3cccc(O)c3)nc12 [Example I-141]
// result 267 to 268 °C

---
// query Look at this molecule and give its reported melting point. CC(C)(C)C(=O)c1c[nH]c2ncc(-c3cc(OCCS(C)(=O)=O)cc(N4CCCC4)c3)nc12 [Example 267]
// result 230 to 232 °C

// query Looking for the measured melting point of COc1cc(-c2cnc3[nH]cc(C(=O)C(C)(C)OC)c3n2)cc(OC)c1OC [Example 131] , can you help?
// result 237.8 to 239.1 °C

// query Which measured melting point value corresponds to CC(C)(C)C(=O)c1c[nH]c2ncc(-c3cccc(N4CCC(S(C)(=O)=O)C4)c3)nc12 (stereo not drawn) [Example 109] ?
// result 223 to 225 °C

// query Recorded melting point for CC1(C(=O)c2c[nH]c3ncc(-c4cccc(CCCO)c4)nc23)CCCCC1 [Example 156] , please?
// result 80 to 83 °C

// query Which melting point value is on record for COc1cc(-c2cnc3[nH]cc(C(=O)C4(C)CCC(=O)C4)c3n2)cc(OC)c1OC (stereo not drawn) [Example 214] ?
// result 238 to 240 °C

// query Reported melting point, molecule CCNc1cccc(-c2cnc3[nH]cc(C(=O)C(C)(C)C)c3n2)c1 [Example 227] : ____
// result 189 to 191 °C
